Tested on: HS 578T breast
assayProtocol: NCI-60 one-dose screen, 48 h
experimentalContext: 10 µM unless noted
Experimental: Growth inhibition of the HS 578T human tumor cell line is measured as a screen for anti-cancer activity. Cells are grown in 96 well plates and exposed to the test compound for 48 hours. Compounds are tested at a single concentration, which is 10^-5 M for most compounds. The reported endpoint is percent growth (GI% or GIPRCNT), where numbers from 0 - 100% represent growth inhibition, and numbers from -100% - 0 represent cell death. For example, a value of 40 represents 60% growth inhibition. […]
About 83,000 compounds went through this panel and 20% of them were active in at least one assay; those are over-represented in the sample as a whole. Active and inactive are the calls of the source. Rule for the calls: active = growth percent below 10; inactive = the rest.
Respond only with the outcome that fits, drawn from t = active, f = inactive

Solved entries (count: 6):
>  <compound>
COc1ccc(C(c2cc(OC)c(OC)c(OC)c2)n2ccnc2)cc1O (centres undefined)

>  <group>
f

$$$$
>  <compound>
CCNC(=O)Nc1ncccc1OCc1ccc(F)cc1

>  <group>
f

$$$$
>  <compound>
Cn1cc(-c2nonc2-c2cn(C)c3ccc(Br)cc23)c2ccccc21

>  <group>
t

$$$$
>  <compound>
Cc1ccc(S(=O)(=O)OC[C@@]2(C)CC[C@]3(C)CC[C@]4(C)C(=CC[C@@H]5[C@@]6(C)CCCNC(C)(C)[C@@H]6CC[C@]54C)[C@@H]3C2)cc1

>  <group>
t

$$$$
>  <compound>
Cn1cc(-c2csc(-c3cn(CCOC(N)=O)c4ccccc34)n2)c2cccnc21

>  <group>
f

$$$$
>  <compound>
Cc1ccc(S(=O)(=O)Nc2cc(Sc3ccccc3)c(O)c3ccccc23)cc1

>  <group>
f

$$$$

Exercise: Status in this test for CCOC(=O)c1cnn(-c2ccc(S(N)(=O)=O)cc2)c1N ?
Key: f

Exercise: Status in this test for CCNC(=O)Oc1ccc(/C(=C(/C)Cc2ccc(OC)cc2)c2ccc(OCCN(CC)CC)cc2)cc1 ?
Key: f

Exercise: Status in this test for COc1cc(-c2nc3occn3c2-c2ccnc(NCCCNS(=O)(=O)c3ccc(O)cc3)n2)ccc1F ?
Key: f

---

Test system: COLO 205 colon
assayProtocol: NCI-60 one-dose screen, 48 h
experimentalContext: 10 µM unless noted
Compounds without any hit were thinned out: in the full panel of roughly 83,000, 20% have a hit. Calls of active or inactive are those of the source. Rule for the calls: active = growth percent below 10; inactive = the rest.
Respond only with the outcome that fits, drawn from yes (1) (active), no (0) (inactive)

Solved entries (count: 6):
>  <compound>
Cc1ccccc1SSc1ccccc1C

>  <group>
no (0)

$$$$
>  <compound>
COc1ccc(C2=C(CN)C(O)NC(=NCC(=O)c3ccc4ccccc4c3)N2)cc1 (centres undefined)

>  <group>
no (0)

$$$$
>  <compound>
O=C(NNc1ccccc1)c1ncc[nH]1

>  <group>
no (0)

$$$$
>  <compound>
Cc1nn(-c2nc(-c3cc4ccccc4oc3=O)cs2)c(C)c1N=Nc1ccccc1

>  <group>
no (0)

$$$$
>  <compound>
C#CCn1cnc2cnc(Nc3cccc(NC(=O)CCl)c3)nc21

>  <group>
yes (1)

$$$$
>  <compound>
C#CCOCC1CN(C)C(=O)O1 (centres undefined)

>  <group>
no (0)

$$$$

Exercise: Status in this test for O=C(CN1C(=O)S/C(=C\C(Cl)=C\c2ccccc2)C1=O)NC1C=CS(=O)(=O)C1 (centres undefined) ?
Key: yes (1)

Exercise: Status in this test for CN(C)C(=O)c1cc2cnc(Nc3ccc(-c4csc5c(=S)cc(N6CCOCC6)oc45)cc3)nc2n1C1CCCC1 ?
Key: yes (1)

Exercise: Status in this test for COc1ccccc1/C=C1\COc2ccc(O)c(O)c2C1=O ?
Key: no (0)
